Test: Toxicity against Sea urchin fertilized eggs assessed as inhibition of cell division at 5 ppm
Parameters: species or system Egg
Conditions: echinoidea
observed.property: inhibition at 5 ppm
Could you write the number and then its unit?

// CC1(C)C[C@H](Cl)C[C@]2(C)[C@H]3C[C@@H]([C@H]4CC(=O)NC4=O)O[C@@]3(C)CC(=O)[C@@H]12 [HATERUMAIMIDE I] : inhibition at 5 ppm value = 80%
